test: Comparison dissolution trials in water and biorelevant media; assay type: physicochemical; settings: thermodynamic from solid; Water, 37° C., 0.5 h; read-out: Solubility (mg/mL) 0.5 h
endpointLabel: solubility at 0.5 h (mg/mL)
Please give a number only; it is taken to be in mg/mL.

Q: What value of solubility at 0.5 h has been recorded for this entry: Cc1ccc(NC(=O)N2CC[C@@H](CC(F)(F)F)C2)cc1-c1cc(N[C@H](C)CO)nc(N2CCOCC2)c1.Cl [Compound 2]
Ans: 1.42

Query compound follows.
Q: What value of solubility at 0.5 h has been recorded for this entry: Cc1ccc(NC(=O)N2CC[C@@H](CC(F)(F)F)C2)cc1-c1cc(N[C@H](C)CO)nc(N2CCOCC2)c1 [Compound 1]
Ans: 0.004

---

assay: Thermodynamic solubility in 13 solvents at RT and 50° C. by UPLC; assay type: physicochemical; settings: MIBK, organic solvent or mixture, thermodynamic from solid, MIBK, RT; read-out: Solubility at RT
endpointLabel: solubility (µg/mL)
Please give a number only; it is taken to be in µg/mL.

Q: What value of solubility has been recorded for this entry: Cc1ccc(NC(=O)N2CC[C@@H](CC(F)(F)F)C2)cc1-c1cc(N[C@H](C)CO)nc(N2CCOCC2)c1.Cl
Ans: 50

---

Assay: Solubility of Compound 1 in solvents
Format: physicochemical
Settings: ethyl acetate, organic solvent or mixture
Protocol: Compound 1 is insoluble in n-heptane and water (<1 mg/mL) and soluble (>100 mg/mL) in methanol, ethanol, acetone, tetrahydrofuran, methyl ethyl ketone, ethyl acetate, acetonitrile, isobutanol, isopropyl alcohol and isopropyl acetate. Compound 1 has a solubility of about 60 mg/mL in methyl t-butyl ether.
endpointLabel: solubility

Q: What value of solubility has been recorded for this entry: Cc1ccc(NC(=O)N2CC[C@@H](CC(F)(F)F)C2)cc1-c1cc(N[C@H](C)CO)nc(N2CCOCC2)c1
Ans: > 100 mg/mL

---

experiment: Thermodynamic solubility in 13 solvents at RT and 50° C. by UPLC; assay type: physicochemical; conditions: IPAC, 50 °C, organic solvent or mixture, thermodynamic from solid, IPAC, 50° C.; read-out: Solubility at 50° C.(mg/mL)
endpointLabel: solubility (mg/mL)
Please give a number only; it is taken to be in mg/mL.

Q: What value of solubility has been recorded for this entry: Cc1ccc(NC(=O)N2CC[C@@H](CC(F)(F)F)C2)cc1-c1cc(N[C@H](C)CO)nc(N2CCOCC2)c1.Cl
Ans: 0.03

---

assay: Thermodynamic solubility in 13 solvents at RT and 50° C. by UPLC; type: physicochemical; settings: EA, 50 °C, organic solvent or mixture, thermodynamic from solid, EA, 50° C.; read-out: Solubility at 50° C.(mg/mL)
endpointLabel: solubility (mg/mL)
Please give a number only; it is taken to be in mg/mL.

Q: What value of solubility has been recorded for this entry: Cc1ccc(NC(=O)N2CC[C@@H](CC(F)(F)F)C2)cc1-c1cc(N[C@H](C)CO)nc(N2CCOCC2)c1.Cl
Ans: 0.09

---

experiment: Solubility of Compound 1 in solvents; format: physicochemical; details: methyl ethyl ketone, organic solvent or mixture
endpointLabel: solubility

Q: What value of solubility has been recorded for this entry: Cc1ccc(NC(=O)N2CC[C@@H](CC(F)(F)F)C2)cc1-c1cc(N[C@H](C)CO)nc(N2CCOCC2)c1 [Compound 1]
Ans: > 100 mg/mL
